TGT: T1, human C5a (human, UniProt P01031 678-751, biotinylated in the U937/C5aR ligand blocking assay (site not stated))
T1 sequence: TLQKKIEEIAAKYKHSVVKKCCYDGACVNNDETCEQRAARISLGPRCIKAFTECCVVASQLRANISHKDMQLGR
TEST PROTOCOL: cell-based or functional assay
MEASURE NAME: Inhibition of cell migration IC50 (nM), U937-C5aR cells

{"BINDER": "N97H (humanized anti-C5a IgG4 antibody) (antibody, V domains shown, Carries F29H and N97H in VH and Y96H in VL (Kabat)) VH: QVQLVQSGAEVKKPGSSVKVSCKASGYTHTDHIIHWMRQAPGQGLEWMGYIYPREGWTNYNENFKGRVTITADKSTSTAYMELSSLRSEDTAVYYCARERHLEYFDYWGQGTTVTVSS VL: DIVLTQSPASLAVSPGQRATITCKASQSVDYEGFNYMNWYQQKPGQPPKLLIYAASNLDSGVPARFSGSGSGTDFTLTINPVEAEDTANYYCQQSNEDPHTFGGGTKVEIKR", "RECORDED NUMBER": 0.07}
{"BINDER": "16D10 (humanized anti-C5a IgG4 antibody) (antibody, V domains shown, also called WT (16D10); WT) VH: QVQLVQSGAEVKKPGSSVKVSCKASGYTFTDHIIHWMRQAPGQGLEWMGYIYPREGWTNYNENFKGRVTITADKSTSTAYMELSSLRSEDTAVYYCARERNLEYFDYWGQGTTVTVSS VL: DIVLTQSPASLAVSPGQRATITCKASQSVDYEGFNYMNWYQQKPGQPPKLLIYAASNLDSGVPARFSGSGSGTDFTLTINPVEAEDTANYYCQQSNEDPYTFGGGTKVEIKR", "RECORDED NUMBER": 0.061}
{"BINDER": "N92H (humanized anti-C5a IgG4 antibody) (antibody, V domains shown, Carries F29H in VH and N92H and Y96H in VL (Kabat); also called N92H antibody) VH: QVQLVQSGAEVKKPGSSVKVSCKASGYTHTDHIIHWMRQAPGQGLEWMGYIYPREGWTNYNENFKGRVTITADKSTSTAYMELSSLRSEDTAVYYCARERNLEYFDYWGQGTTVTVSS VL: DIVLTQSPASLAVSPGQRATITCKASQSVDYEGFNYMNWYQQKPGQPPKLLIYAASNLDSGVPARFSGSGSGTDFTLTINPVEAEDTANYYCQQSHEDPHTFGGGTKVEIKR", "RECORDED NUMBER": 0.099}
{"BINDER": "E54H (humanized anti-C5a IgG4 antibody) (antibody, V domains shown, Carries F29H and E54H in VH and Y96H in VL (Kabat) relative to 16D10) VH: QVQLVQSGAEVKKPGSSVKVSCKASGYTHTDHIIHWMRQAPGQGLEWMGYIYPRHGWTNYNENFKGRVTITADKSTSTAYMELSSLRSEDTAVYYCARERNLEYFDYWGQGTTVTVSS VL: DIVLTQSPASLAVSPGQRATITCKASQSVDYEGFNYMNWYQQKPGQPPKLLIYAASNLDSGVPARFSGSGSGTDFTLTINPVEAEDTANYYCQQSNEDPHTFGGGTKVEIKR", "RECORDED NUMBER": 0.076}

From: patent US20240376189A1
